Just for reference, patent US20230116972A1 is where these values come from.

SYSTEM: mouse CD38 (Mus musculus, UniProt P56528)
Sequence (P56528 whole entry): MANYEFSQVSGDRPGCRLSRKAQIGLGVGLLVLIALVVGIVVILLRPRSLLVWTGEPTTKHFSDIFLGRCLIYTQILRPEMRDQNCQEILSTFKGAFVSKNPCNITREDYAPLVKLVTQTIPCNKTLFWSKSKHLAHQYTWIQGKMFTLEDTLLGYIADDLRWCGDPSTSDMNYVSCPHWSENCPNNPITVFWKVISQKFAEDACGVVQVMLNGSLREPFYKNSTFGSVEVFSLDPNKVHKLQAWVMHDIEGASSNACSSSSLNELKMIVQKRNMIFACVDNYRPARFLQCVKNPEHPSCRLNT
TEST_DESCRIPTION: mouse recombinant CD38 enzyme assay (hydrolysis of NAD+)
TEST_CONDITIONS: read-out: mCD38 BioChem IC50
READOUT_NAME: IC50 (µM)
Expressed in µM, but write only the number.

Consider the worked cases shown below.
> print(dat)
                                   compound  numeric.result
1  Cn1cncc1-c1nc(C(=O)N[C@H]2CC[C@H](O)CC2)cc(C2CCC(F)(F)CC2)n1 [Compound 288]           0.001
2  Cn1cncc1-c1cncc(C(=O)N[C@H]2CC[C@H](C)CC2)n1 [Compound 104]            0.01
3  O=C(NC1CCC(F)(F)CC1)c1cccc(-n2ccnc2)n1 [Compound 136]           0.006
4  O=C(NC12CC(O)(C1)C2)c1cccc(-n2ccnc2)n1 [Compound 15]           0.748
5  Cn1cncc1-c1ccnc(C(=O)N[C@H]2C[C@H](C(C)(C)O)C2)n1 [Compound 284]          0.0597
6  CC(C)(C)c1cc(-n2ccnc2)nc(C(=O)Nc2ccc(C(F)F)nc2)n1 [Compound 188]           0.661

Lookup result for O=C(Nc1ccc(C(F)F)nc1)c1cc(C2CCC2)nc(-n2ccnc2)n1 [Compound 186] ; measured IC50: 0.005

Lookup result for Cn1cncc1-c1cccc(C(=O)Nc2cccnc2)n1 [Compound 59] ; measured IC50: 0.018

Lookup result for Cn1cncc1-c1nc(C(=O)Nc2ccc(C(F)(F)F)nc2)cc(C2CC3(COC3)C2)n1 [Compound 345] ; measured IC50: 0.001

----------
Below, each of the compounds is paired with its reported activity at 10 µM value.
SYSTEM: CYP1A2 (Homo sapiens)
Construct: from tissue; host or cells: human liver microsomes (pooled in the time-dependent assay)
Sequence (P05177 whole entry): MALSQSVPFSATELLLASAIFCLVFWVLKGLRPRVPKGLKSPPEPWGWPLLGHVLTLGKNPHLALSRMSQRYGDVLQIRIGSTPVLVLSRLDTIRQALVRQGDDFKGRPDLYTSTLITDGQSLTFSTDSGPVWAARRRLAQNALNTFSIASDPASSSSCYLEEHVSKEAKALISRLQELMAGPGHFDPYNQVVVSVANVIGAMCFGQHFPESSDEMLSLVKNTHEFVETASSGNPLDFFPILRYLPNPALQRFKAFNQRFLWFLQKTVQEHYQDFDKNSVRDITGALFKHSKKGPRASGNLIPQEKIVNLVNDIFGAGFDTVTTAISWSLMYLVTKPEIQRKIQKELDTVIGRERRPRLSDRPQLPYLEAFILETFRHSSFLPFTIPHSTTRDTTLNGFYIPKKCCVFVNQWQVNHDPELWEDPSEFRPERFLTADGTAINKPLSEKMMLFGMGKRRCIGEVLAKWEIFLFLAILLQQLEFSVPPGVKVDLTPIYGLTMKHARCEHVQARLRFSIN
TEST_DESCRIPTION: direct inhibition of CYP450 in human liver microsomes
Type: in vitro ADME
TEST_CONDITIONS: human, microsomes
Expressed in %, but write only the number.

Consider the worked cases shown below.
> print(dat)
                            compound.smiles       readout.name  numeric.result
1  CO[C@H]1CC[C@H](NC(=O)c2nccc(-n3ccnc3)n2)CC1  activity at 10 µM              92
2  Cn1cncc1-c1ccnc(C(=O)Nc2ccc(C(C)(C)O)nc2)n1  activity at 10 µM              69

Then this compound:
Lookup result for CC(C)(O)c1ccc(NC(=O)c2nccc(-n3ccnc3)n2)cn1 ; measured activity at 10 µM: 93

----------
SYSTEM: UniProt P56528
TEST_DESCRIPTION: mouse recombinant CD38 enzyme assay (hydrolysis of NAD+)
TEST_CONDITIONS: read-out: mCD38 BioChem IC50
Below, each of the compounds is paired with its reported IC50 value.
Expressed in nM, but write only the number.

Consider the worked cases shown below.
> print(dat)
                            compound.smiles  unit.descriptor  numeric.result
1  O=C(N[C@H]1CC[C@H](C(F)F)CC1)c1cccc(-n2ccnc2)n1               nM               7
2  O=C(N[C@H]1CC[C@H](NCC(F)(F)F)CC1)c1nccc(-n2ccnc2)n1               nM            35.9
3  Cc1cc(-n2ccnc2)nc(C(=O)Nc2ccc(C(F)F)nc2)n1               nM             1.6

IC50 on UniProt P56528 for Cn1cncc1-c1nc(C(=O)NC23CC(C(C)(C)O)(C2)C3)cc(C2CCOCC2)n1 is 7.1

IC50 on UniProt P56528 for O=C(Nc1cccnc1)c1ccnc(-n2ccnc2)n1 is 6

IC50 on UniProt P56528 for COc1cc(-c2cncn2C)nc(C(=O)N[C@H]2CC[C@H](OC)CC2)n1 is 5.5

IC50 on UniProt P56528 for COCCO[C@@H]1CC[C@@H](NC(=O)c2cc(C3CCOCC3)nc(-c3cncn3C)n2)C1 is 20.6

IC50 on UniProt P56528 for O=C(NC1CCN(c2ccccc2)CC1)c1nccc(-n2ccnc2)n1 is 270

IC50 on UniProt P56528 for O=C(Nc1cccnc1)c1cccc(-n2ccnc2)c1 is 432

IC50 on UniProt P56528 for Cn1cncc1-c1nc(C(=O)Nc2ccc(C(F)F)nc2)cc(C2CCOCC2)n1 is 1

IC50 on UniProt P56528 for COc1cc(C(=O)Nc2ccc(C(F)(F)F)nc2)nc(-n2ccnc2)c1 is 2.2

IC50 on UniProt P56528 for Cn1cncc1-c1ccnc(C(=O)N[C@H]2C[C@H](c3ccc(F)cc3)C2)n1 is 21.3

IC50 on UniProt P56528 for Cc1cc(C(=O)Nc2cccnc2)nc(-n2ccnc2)c1 is 1

IC50 on UniProt P56528 for COCCO[C@H]1CC[C@H](NC(=O)c2cc(C(F)(F)F)nc(-n3ccnc3)n2)CC1 is 48

IC50 on UniProt P56528 for Cn1cncc1-c1ccnc(C(=O)N[C@H]2CC[C@@](O)(c3ccccc3)CC2)n1 is 124

IC50 on UniProt P56528 for O=C(N[C@H]1C[C@H](c2ccc(C(F)(F)F)nc2)C1)c1nccc(-n2ccnc2)n1 is 175

IC50 on UniProt P56528 for O=C(N[C@H]1CCN(c2ccccc2)C1)c1nccc(-n2ccnc2)n1 is 139

IC50 on UniProt P56528 for CO[C@H]1CC[C@H](NC(=O)c2cc(C)cc(-n3ccnc3)n2)CC1 is 3

IC50 on UniProt P56528 for Cc1cc(C(=O)Nc2ccc(C(F)(F)F)nc2)nc(-n2ccnc2)n1 is 1

IC50 on UniProt P56528 for O=C(Nc1ccncc1)c1cc(-n2ccnc2)ccn1 is 223

IC50 on UniProt P56528 for Cn1cncc1-c1nc(C(=O)Nc2ccc(C(F)F)nc2)cc(C(C)(C)O)n1 is 5

IC50 on UniProt P56528 for O=C(N[C@H]1CC[C@H](C(F)F)CC1)c1ccnc(-c2cncs2)n1 is 138

IC50 on UniProt P56528 for Cn1cncc1-c1cncc(C(=O)Nc2ccc(C(F)(F)F)nc2)n1 is 13

IC50 on UniProt P56528 for COCCO[C@H]1CC[C@H](NC(=O)c2cccc(-c3cncn3C)n2)CC1 is 62

IC50 on UniProt P56528 for CO[C@H]1CC[C@H](NC(=O)c2cc(C3CCOCC3)nc(-c3cncn3C)n2)CC1 is 3.1
